Assay: mammalian toxicity in mice (oral)
Details: mouse, in vivo, corn oil carrier, Swiss white mice
Could you please mark Yes for values of LD50 below 100 mg/kg and No for values at or above it?

molecule="CSC(=NOC(=O)N(C)[S+]([O-])N(C)P1(=S)OCC(C)(C)CO1)C(=O)N(C)C (stereo not shown) [Example 25]" group_label=Yes
molecule="CSC(C)=NOC(=O)N(C)[S+]([O-])N(C)P1(=S)OCC(C)(C)CO1 (stereo not shown) [Example 19]" group_label=No
molecule="CCOP(=S)(OCC)N(C)[S+]([O-])N(C)C(=O)ON=C(C)SC (stereo not shown) [Example 11]" group_label=No
molecule="CCOP(=S)(OCC)N(C)[S+]([O-])N(C)C(=O)ON=C(SC)C(=O)N(C)C (stereo not shown) [Example 21]" group_label=Yes
molecule="COP(=S)(OC)N(C)[S+]([O-])N(C)C(=O)ON=C(C)SC (stereo not shown) [Example 9]" group_label=No
molecule="CCCN([S+]([O-])N(C)C(=O)ON=C(C)SC)P(=S)(OCC)OCC (stereo not shown) [Example 13]" group_label=No

----------
Assay: mammalian toxicity in mice (oral)
Details: mouse, in vivo, corn oil carrier, Swiss white mice
Could you please mark Fulfilled for values of LD50 below 100 mg/kg and Not fulfilled for values at or above it?

molecule="CCCCCCN([S+]([O-])N(C)C(=O)Oc1cccc2c1OC(C)(C)C2)P(=S)(OCC)OCC (centres unmarked)" group_label="Not fulfilled"
molecule="CCCCCCCCCCCCN([S+]([O-])N(C)C(=O)Oc1cccc2c1OC(C)(C)C2)P(=S)(OCC)OCC (centres unmarked)" group_label="Not fulfilled"
molecule="CCOP(=S)(OCC)N(C)[S+]([O-])N(C)C(=O)Oc1cccc2c1OC(C)(C)C2 (centres unmarked)" group_label=Fulfilled
molecule="CN(C(=O)Oc1cccc2c1OC(C)(C)C2)[S+]([O-])N(C)P1(=S)OCC(C)(C)CO1 (centres unmarked)" group_label=Fulfilled
molecule="CCOP(=S)(OCC)N(C(C)C)[S+]([O-])N(C)C(=O)ON=C(SC)C(=O)N(C)C (centres unmarked)" group_label=Fulfilled
molecule="CCCCCCN([S+]([O-])N(C)C(=O)ON=C(C)SC)P(=S)(OCC)OCC (centres unmarked)" group_label="Not fulfilled"
molecule="CCCN([S+]([O-])N(C)C(=O)Oc1cccc2c1OC(C)(C)C2)P(=S)(OCC)OCC (centres unmarked)" group_label=Fulfilled
molecule="CCCCCCN([S+]([O-])N(C)C(=O)Oc1cccc2c1OC(C)(C)C2)P1(=S)OCC(C)(C)CO1 (centres unmarked)" group_label="Not fulfilled"
